Values compiled from patent US7122570B2.

Measured IC50 by item
Molecular target: GnRH receptor (Homo sapiens)
Test: Ca2+ release, human
Settings: read-out: Ca^2+ Release Human IC50
Your answer is read as nM, so omit the unit and give the number.

Consider the worked cases shown below.
| compound | IC50 (nM) |
| --- | --- |
| CC[C@H](C)[C@H](NC(=O)OCc1ccccc1)C(=O)N[C@]1(C(=O)N[C@H](C(N)=O)C(C)C)CCc2[nH]c3c(Cl)cc(Cl)cc3c2C1 [Compound 184a] | 45 |
| CC[C@H](C)[C@H](NC(=O)OCc1ccccc1)C(=O)N[C@]1(C(=O)N[C@H](C(N)=O)C(C)C)CCc2[nH]c3c(C)cccc3c2C1 [Compound 150a] | 280 |
| CC(C)C(NC(=O)C1(NC(=O)Cc2ccc3ccccc3c2)CCc2[nH]c3ccccc3c2C1)C(N)=O (centres unmarked) [Compound 161b] | 3600 |
| CC[C@H](C)[C@H](NC(=O)OCc1ccccc1)C(=O)N[C@]1(C(=O)N[C@H](CO)C(C)C)CCc2[nH]c3ccccc3c2C1 [Compound 267a] | 500 |
| CC[C@H](C)[C@H](NC(=O)OCc1ccccc1)C(=O)N[C@]1(C(=O)N[C@H](C(N)=O)C(C)C)CCc2[nH]c3ccccc3c2C1 | 370 |

Ask: Fill in: IC50 of CC[C@H](C)[C@H](NC(=O)OCc1ccccc1)C(=O)N[C@]1(C(=O)N[C@H](C(=O)NC)C(C)C)CCc2[nH]c3ccccc3c2C1 [Compound 222a] is ___
Result: 3000

Ask: Fill in: IC50 of CC[C@H](C)[C@H](NC(=O)OCc1ccccc1)C(=O)N[C@]1(C(=O)N2C3CCCCC3C[C@H]2C(N)=O)CCc2[nH]c3ccccc3c2C1 (some centres unmarked) [Compound 190a] is ___
Result: 500

---

Measured pIC50 by item
Target: hGnRH-Receptor (Homo sapiens, UniProt P30968)
Sequence (P30968 1-328): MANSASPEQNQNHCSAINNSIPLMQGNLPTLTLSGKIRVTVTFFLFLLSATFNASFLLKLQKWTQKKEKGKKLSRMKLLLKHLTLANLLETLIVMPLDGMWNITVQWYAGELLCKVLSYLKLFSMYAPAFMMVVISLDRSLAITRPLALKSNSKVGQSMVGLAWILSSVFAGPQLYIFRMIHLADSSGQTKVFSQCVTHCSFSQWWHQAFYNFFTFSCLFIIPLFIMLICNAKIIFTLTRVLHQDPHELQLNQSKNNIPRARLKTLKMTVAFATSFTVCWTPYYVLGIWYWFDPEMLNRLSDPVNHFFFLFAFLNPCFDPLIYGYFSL
For clarity, pIC50 is expressed as the negative log10 of concentration in mol/L.

| compound | pIC50 |
| --- | --- |
| CC(C)[C@H](NC(=O)[C@@]1(NC(=O)Cc2cccc(Br)c2)CCc2[nH]c3ccccc3c2C1)C(N)=O [Compound 96] | 5.40 |

Turning now to a further compound:
Ask: Give recorded pIC50 with hGnRH-Receptor (Homo sapiens, UniProt P30968) for the following compound: CC[C@H](C)[C@H](NC(=O)OCc1ccccc1)C(=O)N[C@]1(C(=O)N2C3CCCCC3C[C@H]2C(N)=O)CCc2[nH]c3ccccc3c2C1 (stereo partly drawn) [Compound 190a]
Result: 5.70
